Collected THRβ-Selectivity values appear next to each entry.
# measured on: THR-β/RXR-α (Homo sapiens)
# Format: biochemical
# condition info: RXR heterodimer assay; compound activity normalized to T3 for THR-β/RXR-α and THR-α/RXR-α
endpoint name: THRβ-Selectivity

# compound, observed value
data = [
    ("Cn1cc2cc(Oc3c(Cl)cc(-n4nc(C#N)c(=O)[nH]c4=O)cc3Cl)ccc2n1 [Example 17]", 6.3),
    ("Cc1cnc2ccc(Oc3c(Cl)cc(-n4nc(C#N)c(=O)[nH]c4=O)cc3Cl)cc2c1 [Example 16]", 7.1),
    ("CC(C)(C)n1cnc2ccc(Oc3c(Cl)cc(NC(=O)c4noc(=O)[nH]4)cc3Cl)cc21 [Example 37]", 8.3),
    ("O=C(Nc1cc(Cl)c(Oc2ccc3nccc(C4CC4)c3c2)c(Cl)c1)c1noc(=O)[nH]1 [Example 51]", 8.1),
]

* * *

# measured on: TR beta-LBD (Homo sapiens)
# Type: biochemical
# condition info: TR-FRET assay; THR beta over THR alpha, derived from T3-selectivity normalized data

# smiles structure, limit operator, THRβ-Selectivity
records = [
    ("Cc1ccnc2ccc(Oc3c(Cl)cc(-n4nc(C#N)c(=O)[nH]c4=O)cc3Cl)cc12", "=", 15.9),
    ("O=C(Nc1cc(Cl)c(Oc2ccc3ncn(C4CC4)c3c2)c(Cl)c1)c1noc(=O)[nH]1", ">", 253.0),
    ("CC(C)n1cnc2ccc(Oc3c(Cl)cc(NC(=O)c4noc(=O)[nH]4)cc3Cl)cc21", "=", 348.9),
    ("Cn1cc2cc(Oc3c(Cl)cc(-n4nc(C#N)c(=O)[nH]c4=O)cc3Cl)ccc2n1", "=", 2.2),
    ("Cc1cnc2ccc(Oc3c(Cl)cc(-n4nc(C#N)c(=O)[nH]c4=O)cc3Cl)cc2c1", "=", 68.1),
    ("N#Cc1nn(-c2cc(Cl)c(Oc3ccc4ncn(C5CC5)c4c3)c(Cl)c2)c(=O)[nH]c1=O", "=", 20.2),
    ("Cc1n[nH]c2ccc(Oc3c(Cl)cc(-c4n[nH]c(=O)[nH]c4=O)cc3Cl)cc12", "=", 15.6),
    ("Cc1n[nH]c2ncc(Oc3c(Cl)cc(-n4nc(C#N)c(=O)[nH]c4=O)cc3Cl)cc12", "=", 9.5),
]

* * *

# measured on: TR beta-LBD (Homo sapiens)
# Sequence (P10828 217-461 limits assumed): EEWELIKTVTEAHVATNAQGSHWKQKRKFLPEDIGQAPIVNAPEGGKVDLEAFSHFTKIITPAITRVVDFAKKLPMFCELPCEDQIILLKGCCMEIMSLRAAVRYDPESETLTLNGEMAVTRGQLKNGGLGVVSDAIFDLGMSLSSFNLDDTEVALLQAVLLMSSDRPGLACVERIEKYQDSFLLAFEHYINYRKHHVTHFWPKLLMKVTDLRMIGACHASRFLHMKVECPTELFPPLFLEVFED
# Type: biochemical
# condition info: TR-FRET assay; THR beta over THR alpha, derived from T3-selectivity normalized data
Collected THRβ-Selectivity values appear next to each entry.
endpoint name: THRβ-Selectivity

# compound, observed value
data = [
    ("Cn1cnc2cnc(Oc3c(Cl)cc(NC(=O)c4noc(=O)[nH]4)cc3Cl)cc21 [Example 11]", ">30.5"),
    ("COc1n[nH]c2ccc(Oc3c(Cl)cc(-n4nc(C#N)c(=O)[nH]c4=O)cc3Cl)cc12 [Example 9]", 8.0),
    ("Cc1n[nH]c2ncc(Oc3c(Cl)cc(NC(=O)c4noc(=O)[nH]4)cc3Cl)cc12 [Example 6]", ">18.5"),
]
